Would you kindly list glycan array binding signal (z-score) for each of these binders?
Target: Fuc(a1-2)[Gal(a1-3)]Gal(b1-4)[Fuc(a1-3)]Glc
Experiment: glycan array binding signal (z-score within array); higher = stronger binding
Conditions: glycan notation: IUPAC condensed, linker removed
The full list was thinned out, with the strongest signals kept by preference.
Answers are plain numbers.

HPAIIITrx (Helix pomatia), Q1KM18 (protein) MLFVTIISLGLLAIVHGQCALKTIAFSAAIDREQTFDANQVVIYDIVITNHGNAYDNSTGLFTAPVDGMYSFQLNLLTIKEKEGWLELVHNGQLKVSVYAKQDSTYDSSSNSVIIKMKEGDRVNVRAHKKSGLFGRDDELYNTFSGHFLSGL; -0.413
RVL (Remusatia vivipara), B5LYJ9 (protein) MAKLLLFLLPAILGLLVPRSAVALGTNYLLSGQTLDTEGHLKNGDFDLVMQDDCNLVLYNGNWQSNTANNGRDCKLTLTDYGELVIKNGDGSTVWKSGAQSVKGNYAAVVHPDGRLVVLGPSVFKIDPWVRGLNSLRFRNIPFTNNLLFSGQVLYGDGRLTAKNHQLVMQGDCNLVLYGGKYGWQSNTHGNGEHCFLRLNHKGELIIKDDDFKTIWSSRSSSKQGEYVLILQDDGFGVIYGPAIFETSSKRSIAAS; -0.32

Looking up LlpA (Arthrobacter sp) (protein) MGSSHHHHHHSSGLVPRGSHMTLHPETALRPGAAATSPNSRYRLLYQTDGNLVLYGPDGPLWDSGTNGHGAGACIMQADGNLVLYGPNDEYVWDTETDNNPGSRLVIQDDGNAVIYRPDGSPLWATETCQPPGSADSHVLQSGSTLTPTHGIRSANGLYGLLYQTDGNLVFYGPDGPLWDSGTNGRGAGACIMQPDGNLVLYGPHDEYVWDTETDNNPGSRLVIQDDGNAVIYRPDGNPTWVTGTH , I see its glycan array binding signal (z-score) listed as -1.15
